B1: LINE1-mini (parent)
chain: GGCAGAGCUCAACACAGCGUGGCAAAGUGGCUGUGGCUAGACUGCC

- Variants of: B1
- experiment summary: self-cleavage, relative activity (ratio to wild type); higher = more cleavage; in vitro, sequencing; the parent is a self-cleaving ribozyme
Fulfilled means recorded self-cleavage is 0.1 or above; Not fulfilled means it is below 0.1.

>>> print(df.to_string())
                               sequence_data    label_value
 0  GGCAGAGCUCAACAUAGCGUGCCAAAGUGGCUGUGGCUAGACUGCC      Fulfilled
 1  GGCAGAGCUCAACACAGCGUGGCAAAGUGGCUGUGGCUAGAGUCCC  Not fulfilled
 2  GGCCGAGCUCAACACAGCGUGGAAAAGUGGCUGUGGCUAGACUGCC      Fulfilled
 3  GCCAGAGCUCAUCACAGCGUGGCAAAGUGGCUGUGGCUAGACUGCC      Fulfilled
 4  GGCAGAUCUCAACACAGCGUGGCAAAGUGGCUGUGGCUAGAUUGCC      Fulfilled
 5  GGCAGAGCUCAAUACAGCGUGGCAAAGUGGCUGUGGCUAGACUGGC  Not fulfilled
 6  GGCAGAGCUCAACACAGCGUGGCAAAGUGGCUGUGGCCAGUCUGCC      Fulfilled
 7  GGCAGAGCUCAACACAGCGUGGCAGAGUGGCUGAGGCUAGACUGCC  Not fulfilled
 8  GGCAGAGCUCAACACAGCGUCGCAAAGGGGCUGUGGCUAGACUGCC      Fulfilled
 9  GGCAGAGCUCGACACACCGUGGCAAAGUGGCUGUGGCUAGACUGCC  Not fulfilled
10  GGCAUAGCUCAACACAGCGUGGCAAAGUGGCUGUGGCCAGACUGCC  Not fulfilled
11  GGCAGAGCUCAACACAGCCUGGCAAAGUGGCUGUGGCUAGAUUGCC      Fulfilled
12  GGCAGAGUUCAACACAGCGUGGCAAACUGGCUGUGGCUAGACUGCC      Fulfilled
13  GGCAGAGCUCAACACAGCGAGGGAAAGUGGCUGUGGCUAGACUGCC      Fulfilled
14  GGCAGAGCUCAACACAGUAUGGCAAAGUGGCUGUGGCUAGACUGCC      Fulfilled
15  GGCAGAGCUCAACACAGCGUGGCAAAGUAGCUGUGGCUAGACUUCC      Fulfilled
16  GGCAGAGCUCAACACAGCGUGGCAAAGUGCCUGUGGCUAGACUGAC      Fulfilled
17  GGCAGAUCUCAACACAGCGUGGCAAAGUGGCUGUGGCUAGACUACC  Not fulfilled
18  GGCAGAGCUCCACACAGCGUGGCAAAUUGGCUGUGGCUAGACUGCC  Not fulfilled
19  GGCAGAGCUCAACACAGCUUGUCAAAGUGGCUGUGGCUAGACUGCC      Fulfilled
20  GGCAGAGCUCAACACAGCGAGGUAAAGUGGCUGUGGCUAGACUGCC      Fulfilled
21  GGCGGAGCUCAACACAGCGUGGCAAAGUGGGUGUGGCUAGACUGCC      Fulfilled
22  GGCAGAGCUGAACACAGCGUGGCAAAGUGGCUGUGGCAAGACUGCC  Not fulfilled
23  GGCAGAGCUCAACACAGCGUGGCCAAGUGGCUGUGGCCAGACUGCC      Fulfilled
24  GGCAGAGCUCAACACAGCGUGGCAGAGAGGCUGUGGCUAGACUGCC      Fulfilled
25  GGCAGAUCUCAACCCAGCGUGGCAAAGUGGCUGUGGCUAGACUGCC  Not fulfilled
26  GGCAGAGCUCGACACAGCGUGGCAAAGCGGCUGUGGCUAGACUGCC  Not fulfilled
27  GGCAGAGCUCUACACAGCGUGGCAAAGUGGCUGUGGCUAGUCUGCC      Fulfilled
28  GGCAGACCUCAACACAGCGUGGCAAAGUGGCUGUGGCUCGACUGCC      Fulfilled
29  GGCAGAGCUCAACAGAGCGUGGCAAAGUGGCUGUGGCUAGACUUCC  Not fulfilled
30  GGCAGAGCUUAACACAGCGUGGCAAAGUGGCUGUGGGUAGACUGCC  Not fulfilled
31  AGCAGAGCUCAACACAGCGUGGCAAAGUGGCUGUGGCUAGAAUGCC  Not fulfilled
32  GGCUGAGCUCAACACAGCGCGGCAAAGUGGCUGUGGCUAGACUGCC      Fulfilled
33  GGCAGAGCUCAACACAGCGUGGCAAACUGGCUGUGGCUAGACUGUC      Fulfilled
34  GGCAGAGCUCAACAUAGCGUGGCAAAGCGGCUGUGGCUAGACUGCC      Fulfilled
35  GGCAGAGCUCACAACAGCGUGGCAAAGUGGCUGUGGCUAGACUGCC  Not fulfilled
36  GGCAGAGCUCUACACAGCGUGGCAAAGUGGCUAUGGCUAGACUGCC  Not fulfilled
37  GGCAGAGCUCAACACCGCGUUGCAAAGUGGCUGUGGCUAGACUGCC  Not fulfilled
38  GGCAGAGCUCAAAACAGCGUGGCAAAGUGGCUGUGGCUUGACUGCC      Fulfilled
39  GGCAGAGCUCAACACAGCCUGGCAAAGCGGCUGUGGCUAGACUGCC      Fulfilled
40  GGCAGAGCUCAACACAGCGUGGCAAAGUGGCAGUGGAUAGACUGCC  Not fulfilled
41  GGCAGAGCGAAACACAGCGUGGCAAAGUGGCUGUGGCUAGACUGCC  Not fulfilled
42  GGCAGAGCUCAACCCAGCGUGGCAAAGUGGCUGUGGUUAGACUGCC  Not fulfilled
